Reference source: patent US20070117743A1

Give CC50 for every item shown.
Tested on: SK-MEL-28
Test: SRB colorimetric assay of cell growth and viability, SK-MEL-28
Assay type: cell-based, human
Conditions: 48 hours exposure; read-out: LC50 MEL-28
Where a SMILES comes first, the peptide text is derived from it. Bridges are numbered along the chain shown (N, C = ends). [ ]: non-standard residue; d: D form. The star is where a group is joined. d(aIle) = CC[C@H](C)[C@@H](N)C(=O)O; d(aThr) = C[C@@H](O)[C@@H](N)C(=O)O; Myristoyl = CCCCCCCCCCCCCC(=O)*; Orn = NCCC[C@H](N)C(=O)O; Dhb = C/C=C(\N)C(=O)O
Numbers only, in µM.

C/C=C1\NC(=O)[C@H](Cc2ccccc2)NC(=O)[C@@H](C(C)C)NC(=O)[C@@H]([C@@H](C)CC)NC(=O)[C@H](NC(=O)[C@H](NC(=O)[C@H](CCCN)NC(=O)[C@H]2CCCN2C(=O)[C@H](NC(=O)[C@@H](NC(=O)[C@@H](NC(=O)[C@H](NC(=O)CCCCC(C)=O)C(C)C)[C@@H](C)O)C(C)C)C(C)C)[C@@H](C)CC)[C@@H](C)OC(=O)[C@H](C(C)C)NC1=O [Compound 27, [6-OHep^14]-KF] = 6.7
C/C=C1\NC(=O)[C@H](Cc2ccccc2)NC(=O)[C@@H](C(C)C)NC(=O)[C@@H]([C@@H](C)CC)NC(=O)[C@H](NC(=O)[C@H](NC(=O)[C@H](CCCN)NC(=O)[C@H]2CCCN2C(=O)[C@H](NC(=O)CCCCCCCCCCCCC)C(C)C)[C@@H](C)CC)[C@@H](C)OC(=O)[C@H](C(C)C)NC1=O [Compound 32] (Myristoyl-[dV][dP][Orn][d(aIle)][d(aThr)][d(aIle)][dV]F[Dhb]V; ester 5-C) = 6.34

Would you mind telling me what CC50 value was observed for C/C=C1\NC(=O)[C@H](Cc2ccccc2)NC(=O)[C@@H](C(C)C)NC(=O)[C@@H]([C@@H](C)CC)NC(=O)[C@H](NC(=O)[C@H](NC(=O)[C@H](CCCN)NC(=O)[C@H]2CCCN2C(=O)[C@H](NC(=O)[C@@H](NC(=O)[C@@H](NC(=O)CNC(=O)CCCC(C)C)[C@@H](C)O)C(C)C)C(C)C)[C@@H](C)CC)[C@@H](C)OC(=O)[C@H](C(C)C)NC1=O [Compound 33, [Gly^13]-KF] ?
6.96

----------
Tested on: PANC-1
Test: SRB colorimetric assay of cell growth and viability, PANC-1
Type: cell-based, human
Conditions: 48 hours exposure, SRB
Where a SMILES comes first, the peptide text is derived from it. Bridges are numbered along the chain shown (N, C = ends). [ ]: non-standard residue; d: D form. The star is where a group is joined. d(aIle) = CC[C@H](C)[C@@H](N)C(=O)O; d(aThr) = C[C@@H](O)[C@@H](N)C(=O)O; Hexanoyl(5-Me) = CC(C)CCCC(=O)*; Orn = NCCC[C@H](N)C(=O)O; Dhb = C/C=C(\N)C(=O)O
Property label: TGI PANC-1 (Molar)
Numbers only, in Molar.

CC[C@H](C)[C@@H](NC(=O)[C@H](CCCN)NC(=O)[C@H]1CCCN1C(=O)[C@H](NC(=O)[C@@H](NC(=O)[C@@H](NC(=O)[C@H](NC(=O)CCCC(C)C)C(C)C)[C@@H](C)O)C(C)C)C(C)C)C(=O)N[C@H]1C(=O)N[C@H]([C@@H](C)CC)C(=O)N[C@H](C(C)C)C(=O)N[C@@H](Cc2ccccc2)C(=O)NCC(=O)N[C@@H](C(C)C)C(=O)O[C@@H]1C [Compound 65, [Gly^2]-KF] ({Hexanoyl(5-Me)}-[dV]TV[dV][dP][Orn][d(aIle)][d(aThr)][d(aIle)][dV]FGV; ester 8-C) = 6.89E−06

Required: TGI PANC-1, one value per compound below.
1. C/C=C1\NC(=O)[C@H](Cc2c(F)c(F)c(F)c(F)c2F)NC(=O)[C@@H](C(C)C)NC(=O)[C@@H]([C@@H](C)CC)NC(=O)[C@H](NC(=O)[C@H](NC(=O)[C@H](CCCN)NC(=O)[C@H]2CCCN2C(=O)[C@H](NC(=O)[C@@H](NC(=O)[C@@H](NC(=O)[C@H](NC(=O)CC[C@@H](C)CC)C(C)C)[C@@H](C)O)C(C)C)C(C)C)[C@@H](C)CC)[C@@H](C)OC(=O)[C@H](C(C)C)NC1=O [Compound 71, [Phe(F5)^3, (4S)-MeHex^14]-KF]
2. C/C=C1\NC(=O)[C@H](Cc2ccc(Cl)c(Cl)c2)NC(=O)[C@@H](C(C)C)NC(=O)[C@@H]([C@@H](C)CC)NC(=O)[C@H](NC(=O)[C@H](NC(=O)[C@H](CCCN)NC(=O)[C@H]2CCCN2C(=O)[C@H](NC(=O)[C@@H](NC(=O)[C@@H](NC(=O)[C@H](NC(=O)CC[C@@H](C)CC)C(C)C)[C@@H](C)O)C(C)C)C(C)C)[C@@H](C)CC)[C@@H](C)OC(=O)[C@H](C(C)C)NC1=O [Compound 70, [Phe(3,4-Cl2)^3, (4S)-MeHex^14]-KF]
3. C/C=C1\NC(=O)[C@H](Cc2ccccc2)NC(=O)[C@@H](C(C)C)NC(=O)[C@@H]([C@@H](C)CC)NC(=O)[C@H](NC(=O)[C@H](NC(=O)[C@H](CCCN)NC(=O)[C@H]2CCCN2C(=O)[C@H](NC(=O)[C@@H](NC(=O)[C@H](CCCN)NC(=O)CCCC(C)C)C(C)C)C(C)C)[C@@H](C)CC)[C@@H](C)OC(=O)[C@H](C(C)C)NC1=O [Compound 57, [Orn^12, noD-Val^13]-KF] ({Hexanoyl(5-Me)}-[Orn]V[dV][dP][Orn][d(aIle)][d(aThr)][d(aIle)][dV]F[Dhb]V; ester 7-C)

4.41E−06
1.85E−06
7.18E−06

----------
Give GI50 for every item shown.
Tested on: PANC-1
Assay: SRB colorimetric assay of cell growth and viability, PANC-1
Format: cell-based, human
Conditions: 48 hours exposure
Where a SMILES comes first, the peptide text is derived from it. Bridges are numbered along the chain shown (N, C = ends). [ ]: non-standard residue; d: D form. The star is where a group is joined. d(aIle) = CC[C@H](C)[C@@H](N)C(=O)O; d(aThr) = C[C@@H](O)[C@@H](N)C(=O)O; Hexanoyl(5-Me) = CC(C)CCCC(=O)*; Orn = NCCC[C@H](N)C(=O)O; Dhb = C/C=C(\N)C(=O)O
One number for each entry, in nM.

C/C=C1\NC(=O)[C@H](Cc2ccccc2)NC(=O)[C@@H](C(C)C)NC(=O)[C@@H]([C@@H](C)CC)NC(=O)[C@H](NC(=O)[C@H](NC(=O)[C@H](CCCN)NC(=O)[C@H]2CCCN2C(=O)[C@H](NC(=O)[C@H](Cc2ccccc2)NC(=O)[C@@H](NC(=O)[C@H](NC(=O)CCCC(C)C)C(C)C)[C@@H](C)O)C(C)C)[C@@H](C)CC)[C@@H](C)OC(=O)[C@H](C(C)C)NC1=O [Compound 43, [Phe^11]-KF] ({Hexanoyl(5-Me)}-[dV]TF[dV][dP][Orn][d(aIle)][d(aThr)][d(aIle)][dV]F[Dhb]V; ester 8-C) = 1790

Now turn to the next molecule.
Would you mind telling me what GI50 value was observed for C/C=C1\NC(=O)[C@H](Cc2ccccc2)NC(=O)[C@@H](C(C)C)NC(=O)[C@@H]([C@@H](C)CC)NC(=O)[C@H](NC(=O)[C@H](NC(=O)[C@H](CCCN)NC(=O)[C@H]2CCCN2C(=O)[C@H](NC(=O)[C@@H](NC(=O)CNC(=O)CCCC(C)C)C(C)C)C(C)C)[C@@H](C)CC)[C@@H](C)OC(=O)[C@H](C(C)C)NC1=O [Compound 53, [Gly^12, noD-Val^13]-KF] ({Hexanoyl(5-Me)}-GV[dV][dP][Orn][d(aIle)][d(aThr)][d(aIle)][dV]F[Dhb]V; ester 7-C) ?
4170

----------
Give GI50 for every item shown.
System: LoVo
Test: SRB colorimetric assay of cell growth and viability, LoVo
Assay type: cell-based, human
Conditions: 48 hours exposure
Where a SMILES comes first, the peptide text is derived from it. Bridges are numbered along the chain shown (N, C = ends). [ ]: non-standard residue; d: D form. The star is where a group is joined. d(aIle) = CC[C@H](C)[C@@H](N)C(=O)O; d(aThr) = C[C@@H](O)[C@@H](N)C(=O)O; hCha = N[C@@H](CCC1CCCCC1)C(=O)O; Hexanoyl(5-Me) = CC(C)CCCC(=O)*; Orn = NCCC[C@H](N)C(=O)O; Dhb = C/C=C(\N)C(=O)O
One number for each entry, in nM.

C/C=C1\NC(=O)[C@H](Cc2ccccc2)NC(=O)[C@@H](C(C)C)NC(=O)[C@@H]([C@@H](C)CC)NC(=O)[C@H](NC(=O)[C@H](NC(=O)[C@H](CCCN)NC(=O)[C@H]2CCCN2C(=O)[C@H](NC(=O)[C@@H](NC(=O)[C@@H](NC(=O)[C@H](NC(=O)CCCCCCCCCC)C(C)C)[C@@H](C)O)C(C)C)C(C)C)[C@@H](C)CC)[C@@H](C)OC(=O)[C@H](C(C)C)NC1=O [Compound 15, [Und^14]-KF] = 117

Tell me reported GI50 for C/C=C1\NC(=O)[C@H](Cc2ccccc2)NC(=O)[C@@H](C(C)C)NC(=O)[C@@H]([C@@H](C)CC)NC(=O)[C@H](NC(=O)[C@H](NC(=O)[C@H](CCCN)NC(=O)[C@H]2CCCN2C(=O)[C@H](NC(=O)[C@H](CCC2CCCCC2)NC(=O)[C@@H](NC(=O)[C@H](NC(=O)CCCC(C)C)C(C)C)[C@@H](C)O)C(C)C)[C@@H](C)CC)[C@@H](C)OC(=O)[C@H](C(C)C)NC1=O [Compound 9, [hCh^11]-KF] ({Hexanoyl(5-Me)}-[dV]T[hCha][dV][dP][Orn][d(aIle)][d(aThr)][d(aIle)][dV]F[Dhb]V; ester 8-C) , tested with LoVo.
95.7
